# study.target: T1, human BACE1 ECD
# T1 construct: analyte of the Octet assay (200 nM) and enzyme of the first short substrate assay; also called human BACE1 extracellular domain
# T1 sequence (single chain, as listed by the source limits assumed): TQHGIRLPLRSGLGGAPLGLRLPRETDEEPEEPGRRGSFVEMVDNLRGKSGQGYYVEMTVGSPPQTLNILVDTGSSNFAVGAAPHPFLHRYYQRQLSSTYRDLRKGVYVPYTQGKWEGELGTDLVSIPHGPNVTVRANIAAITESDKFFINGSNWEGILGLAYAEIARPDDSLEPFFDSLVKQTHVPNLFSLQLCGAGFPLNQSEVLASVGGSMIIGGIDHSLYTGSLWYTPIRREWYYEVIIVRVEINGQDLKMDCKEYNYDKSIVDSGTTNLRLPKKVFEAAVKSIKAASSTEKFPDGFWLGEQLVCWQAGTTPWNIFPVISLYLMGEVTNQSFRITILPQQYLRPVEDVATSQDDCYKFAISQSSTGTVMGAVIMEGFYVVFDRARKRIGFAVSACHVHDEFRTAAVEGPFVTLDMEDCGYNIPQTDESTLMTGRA
# test.name: Octet, pH 7.5;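 note: antibodies captured on anti-human capture biosensor tips, dissociation followed in PBS with BSA buffer, kinetics fitted with a one-to-one binding model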
reported.endpoint: pKd
The value called pKd is obtained by taking minus log10 of the concentration in mol/L.

INSERT INTO measurements (binder, reported_endpoint, measured_result) VALUES
  ('5875 (antibody, V domains shown, anti-BACE1 IgG) VH: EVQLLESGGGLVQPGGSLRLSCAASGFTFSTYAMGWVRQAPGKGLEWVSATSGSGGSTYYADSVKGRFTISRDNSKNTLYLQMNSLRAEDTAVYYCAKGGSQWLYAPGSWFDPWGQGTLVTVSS VL: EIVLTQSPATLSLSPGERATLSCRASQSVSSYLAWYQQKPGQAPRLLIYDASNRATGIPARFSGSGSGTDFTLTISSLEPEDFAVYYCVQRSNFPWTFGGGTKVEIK', 'pKd', 7.49);

Moving on to another binder below.
I have this binder here, 5883 (antibody, V domains shown, anti-BACE1 IgG) VH: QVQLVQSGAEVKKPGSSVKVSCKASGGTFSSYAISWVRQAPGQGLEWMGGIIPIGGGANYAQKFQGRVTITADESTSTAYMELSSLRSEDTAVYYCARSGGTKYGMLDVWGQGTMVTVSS VL: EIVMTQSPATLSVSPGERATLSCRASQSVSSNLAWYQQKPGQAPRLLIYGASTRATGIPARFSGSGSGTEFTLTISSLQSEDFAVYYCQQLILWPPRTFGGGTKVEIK , and I need its recorded pKd.
8.34
